- System: MS2 coat protein
- TEST_SUMMARY: apparent KD of MS2 coat protein; designed switch direction (-1 OFF switch, 1 ON switch): 1; higher = weaker reporter binding
- PARTICULARS: input ligand: FMN 200 uM
Reported values of apparent KD of MS2 coat protein for individual entries

MONOMER_SEQUENCE	TARGET_SYSTEM	apparent KD of MS2 coat protein (nM)
ACAUGAGGAUCACCCAUGUAUUUAUAUGAAUCUUAAGUUACGUAGGAUAUCGUCUAUACUAUCAACGAGAAGGACGAACUCAAA [JR_SSNG3_Sub069] (Eterna round: R96, puzzle: Same State NG 3)	MS2 coat protein	9.51
AGGCUCAGACUAGGAUAUACGUGGUCACAUGAGGAUCACCCAUGUCUCGAGCUUCGGCUCGAGGCGUAGAAGGAGUCUGAGCCA [SSNG2/6-D1] (Eterna round: R96, puzzle: Same State NG 2)	MS2 coat protein	119
AAGGUGCAGGUACAGGAUAUGUUGCUCGUAACAUGAGGAUCACCCAUGUACCUAUGAGAUUAAAUGCAGAAGGGUGCACACCAAA [Mat - Same State 2 - Mod of UCT - D91] (Eterna round: R96, puzzle: Same State 2)	MS2 coat protein	70.6
ACAUGAGGAUCACCCAUGUAUAGAUUUGAAUCUUAAGUUACGUAGGAUAUCGUGUUUAGUAUCAUCGAGAAGGACGAUCUGAUA [JR_SSNG3_Sub067] (Eterna round: R96, puzzle: Same State NG 3)	MS2 coat protein	19.7

----------
Reported values of apparent KD of MS2 coat protein for individual entries
- Tested on: MS2 coat protein
- TEST_SUMMARY: apparent KD of MS2 coat protein; designed switch direction (-1 OFF switch, 1 ON switch): 1; higher = weaker reporter binding
- PARTICULARS: input ligand: microRNA oligo, concentration not stated
MEASUREMENT_KIND: apparent KD of MS2 coat protein (nM)

MONOMER_SEQUENCE	MEASUREMENT_KIND	UNIT_OF_MEASUREMENT	MEASURED
GAGUGGUAAAGAGGAUAUGCAUUGUUAUUCACUGUAGAAGGUUUUAACAUGAGGAUCACCCAUGUAGGACUAUUCCUGUGUUUC [Parity 63 - Jieux - Same State NG 1] (Eterna round: R96, puzzle: Same State NG 1)	apparent KD of MS2 coat protein	nM	11.8
GAGUAGUUGGAAGGAUAUCGAUUGUUAUAGAAUCGAGAAGGUCCUAACAUGAGGAUCACCCAUGUAGGACUAUUCCUGUGUAUC [Parity 76 - Jieux - Same State NG 1] (Eterna round: R96, puzzle: Same State NG 1)	apparent KD of MS2 coat protein	nM	8.12
AGCCGAGACACAGGAUAUAGAUAUCUACAUGAGGAUCACCCAUGUAGCAACACGUGGUAGUGAUUCUAGAAGGGUGCUCGGCGC [Omei SS(NG)2 Cv8] (Eterna round: R96, puzzle: Same State NG 2)	apparent KD of MS2 coat protein	nM	170
CCCUCACAUGAGGAUCACCCAUGUCCUAGCAGGUCAGGAUAUAGCCCGCAUCCGCUGCGGCUAGAAGGGACAGCUG [JR_SS001_Sub610] (Eterna round: R96, puzzle: Same State 1)	apparent KD of MS2 coat protein	nM	135
AGAUCAUGACGAGGAUAUGGAACAUGAGGAUCACCCAUGUAUGUUCCAUAACGCGAAUAAAGAAUCCAGAAGGCGUCGUGGUCA [Mat - Same State NG 2 - JL mod - D30] (Eterna round: R96, puzzle: Same State NG 2)	apparent KD of MS2 coat protein	nM	78.9
GUUACAUGAGGAUCACCCAUGUAUGUGUGGGAGUAAGUGUCUUAGGAUAUCUAUCAUUUAAGUUAAGAGAAGGAAGAUUGUUGU [JMF's solution 95] (Eterna round: R96, puzzle: Same State NG 3)	apparent KD of MS2 coat protein	nM	80.4
AAUUAAGAUUGAGGAUAUCACGUCGAUUAGACGUGAGAAGGCGAUCAUAACAUGAGGAUCACCCAUGUAUUACAUGAAUUAAUU [SSNG1/5-B2] (Eterna round: R96, puzzle: Same State NG 1)	apparent KD of MS2 coat protein	nM	26.2
UGCUAGUGGGUAGGAUAUUUAGGAUAUGCGGAAGACUAAGUCUGUAGGUCACCUAACGCAGAAGGAGAGAAGGACCCUUCAGCU [pwkr ssNG2 2FMN + F9.29] (Eterna round: R96, puzzle: Same State NG 2)	apparent KD of MS2 coat protein	nM	16.8
UUGAUGUACUGAGGAUAUCGUGUCGUCUGAUUUUACAUGAGGAUCACCCAUGUGGGUUGUGGUAUCGAGAAGGCAGUUUUCUUA [JR_SSNG2_Sub029] (Eterna round: R96, puzzle: Same State NG 2)	apparent KD of MS2 coat protein	nM	84.3
GCUAGAAUAAAUGCUAACAUGAGGAUCACCCAUGUAUGUUGGCAGGAUAUCGUUUGCAAAGCAAACGAGAAGGGCCAUACUAGC [Mat - Same State NG 3 - JL Mod - D26] (Eterna round: R96, puzzle: Same State NG 3)	apparent KD of MS2 coat protein	nM	26.3
UUAAUAAAGUAAGGAUAUACAUGAGGAUCACUCGUAGAAGGUACUAUACAUGAGGAUCACCCAUGUUCCGGUCAGAAGACUGGA [Mat - Same State NG 1 - JL mod - D4] (Eterna round: R96, puzzle: Same State NG 1)	apparent KD of MS2 coat protein	nM	440
GGAGCCAAGGCAGGAUAUUCAUAUAAAUAAACAUGAGGAUCACCCAUGUAGGCCAGAAGGCCUUGGGAGAAGGGCCAUGGCUCG [Xeonanis - 13 mod6] (Eterna round: R96, puzzle: Same State NG 2)	apparent KD of MS2 coat protein	nM	69.8
UGCUAGUGGGUAGGAUAUUUAGGAUAUGGGAAAGACUAAGUCUGUAGGUCACCUAACCCAGAAGGAGAGAAGGACCAUUCAGCU [pwkr ssNG2 2FMN + F9.27] (Eterna round: R96, puzzle: Same State NG 2)	apparent KD of MS2 coat protein	nM	4.33
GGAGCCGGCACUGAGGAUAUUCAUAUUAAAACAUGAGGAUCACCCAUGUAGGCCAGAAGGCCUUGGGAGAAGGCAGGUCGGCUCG [salish99_ss2_r3_075] (Eterna round: R96, puzzle: Same State 2)	apparent KD of MS2 coat protein	nM	188
GUGGUCAGACAUGAGGAUCACCCAUGUGGAAUAAAUAACACACAGGAUAUCCAAUAUAAAAUAUAGGAGAAGGGUGGAUUGGUG (Eterna round: R96, puzzle: Same State NG 3)	apparent KD of MS2 coat protein	nM	176
UAUUUAAUCGUAGGAUAUAGAGUGAAAUUUGGACUAGAAGGACGUAACAUGAGGAUCACCCAUGUGGUAAGUGGGACACAGUGU [JR_SSNG1_Sub038] (Eterna round: R96, puzzle: Same State NG 1)	apparent KD of MS2 coat protein	nM	66.8
GGAAUAUUCACAGGAUAUGAGUUGUAAAGUGGAUCAGAAGGGUGGGUGUUUUGCACGGUGUGUUACAUGAGGAUCACCCAUGUU [SameState NG1 #23] (Eterna round: R96, puzzle: Same State NG 1)	apparent KD of MS2 coat protein	nM	241

----------
- Tested on: MS2 coat protein
- TEST_SUMMARY: apparent KD of MS2 coat protein; designed switch direction (-1 OFF switch, 1 ON switch): 1; higher = weaker reporter binding
- PARTICULARS: input ligand: microRNA oligo, concentration not stated
Output 1 for apparent KD of MS2 coat protein not less than 60 nM; output 0 otherwise.

MONOMER_SEQUENCE	DISCRETE_LABEL
CGGGUAAUCGUAGGAUAUCUAGGAUAUGAACGAGGAUCACCCGAGCAGCAUCAGCGCAUCAGAGGAGAGAAGGACGAUGAUGCG [pwkr ssNG2 2F5 2FMN.18] (Eterna round: R96, puzzle: Same State NG 2)	1
CACGUCUCGGUAGGAUAUGAGGUGCCAUAGGGAACAGCCUAUGGACAUGAGGAUCACCCAUGUCCUCAGAAGGGCCGGACGUGA [Leonis] (Eterna round: R96, puzzle: Same State NG 2)	0
GUGGUCAGACAUGAGGAUCACCCAUGUGGAAUAAAUAACGGUGAGGAUAUUGAAUAUAGGAUAUACGAGAAGGCAUGAUUGGUG (Eterna round: R96, puzzle: Same State NG 3)	1
GGAGCCGGCCUAGGAUAUUUCAUAAAGAAACAUGAGGAUCACCCAUGUAGGCCAGAAGGCCUUGGGAAGAAGGAGGUCGGCUCC [Loop Effect - G27] (Eterna round: R96, puzzle: Same State NG 2)	0
GGACGUCAUCUCAAUAAUUAAACAUGAGGAUCACCCAUGUCACAGGAUAUGGAUCCUAAUUGGAUCCAGAAGGGUGUGACGUCC [Fiskers NG3ss - 40] (Eterna round: R96, puzzle: Same State NG 3)	0
